experiment: A CellTox Green Cytotoxicity Assay to monitor cytotoxicity in HepG2 cells - 8 hour (AID 1224890); conditions: CellTox Green fluorescence; series mostly up to 76.8 µM; further: nearly all actives have a fitted effect of over 45% in size
Inconclusive results are not listed. Activity calls are given as the source filed them. The call rests on the fitted dose curve; in most records, active means well fitted activation curve with a large enough effect in the repeat runs; inconclusive means weak or mixed curves; inactive means flat fitted curve, though single readings scatter.
Possible outcomes: active, inactive

* O=c1[nH]c(=O)n([C@H]2C[C@H](O)[C@@H](CO)O2)cc1F | active
* COc1ccc(-c2coc3cc(O)ccc3c2=O)cc1 | inactive
* CC(N=C(NC#N)Nc1ccncc1)C(C)(C)C (stereo not drawn) | inactive
* C#C[C@]1(O)CC[C@H]2[C@@H]3[C@H](C)CC4=C(CCC(=O)C4)[C@H]3CC[C@@]21C | inactive
* Cc1c(N)cccc1C(F)(F)F | inactive
* O=C(O)c1cc(O)c2ccccc2c1O | inactive
* Cc1ccc(-c2ccccc2)cc1 | active
* Nc1ccc(Oc2ccc(Cl)cc2)cc1 | inactive
* C=Cc1cccc(C)c1 | inactive
* COC1=C(OC)C(=O)C(CCCCCCCCCCO)=C(C)C1=O | inactive
* CC(=O)OCC=C(C)C | inactive
* O=C1OC2(c3ccc(O)cc3Oc3cc(O)ccc32)c2ccc(N=C=S)cc21 | active
* CCC(C)[O-].CCC(C)[O-].CCOC(=O)/C=C(/C)[O-].[Al+3] | inactive
